Listed next: entries and their corresponding %Inh.
System: RIOK3
particulars: concentration: 1 μM, replicates: in singlicate; n = 1;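 note: KINOMEscan kinase panel screen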
assay.endpoint: %Inh (%)

CCCC(=O)Nc1n[nH]c2ncc(-c3cccc4ccccc34)cc12 :: 0
CCC(=O)c1c(-c2ccccc2)c2cc(Cl)ccc2c(=O)n1Cc1cc(C(=O)NC2CC2)n(C)n1 :: 10
Cl.c1ccc(Cn2cnc3cc(Nc4ncnc5ccccc45)ccc32)cc1 :: 38

###

System: HASPIN
Construct: gene GSG2
particulars: concentration: 1 μM, replicates: in singlicate; n = 1
Listed next: entries and their corresponding %Inh.
assay.endpoint: %Inh (%)

COC(=O)c1c(-c2ccccc2)c2cc(Br)ccc2c(=O)n1Cc1ccc(NC(=O)CCC(=O)O)cc1 :: 6
Cc1cccc(-c2nc(Nc3ccc4c(cnn4C)c3)c3ccccc3n2)n1 :: 11
CCC(=O)c1c(-c2ccccc2)c2cc(Cl)ccc2c(=O)n1Cc1ccc(C(=O)O)cc1 :: 42
Cn1c(=O)c(F)c(Nc2ccc(I)cc2F)c2c(=O)n(OC[C@H](O)CO)cnc21 :: 4
Cc1nnc(-c2ccc(C)c(-c3ccc(C(=O)O)cc3)c2)o1 :: 0
COc1cc2ncn(-c3cc(OCc4ccncc4)c(C(N)=O)s3)c2cc1OC :: 0
O=C(Nc1n[nH]c2nc(-c3ccccc3)c(Cl)cc12)C1CC1 :: 0
O=C(NCCNc1ccnc(Nc2ccc(F)cc2)n1)Nc1ccc2c(c1)OCO2 :: 0
O=c1cc(N2CCOCC2)nc2n(Cc3ccc(F)c(Cl)c3)ccn12 :: 0
COc1ccc(-n2cnc3c(N)ncnc32)cc1 :: 0
Nc1ncnc2c1ncn2-c1cccc2ccccc12 :: 60
COc1cc(OC)cc(-c2cc3cnc(N)nc3nc2NC(=O)NC(C)(C)C)c1 :: 0
Nc1ncnc2c1ncn2-c1cccc(F)c1 :: 45
O=C1NC(=O)C(c2ccccc2)=C1Nc1cccc(O)c1 :: 6
Cc1cc(Nc2nc(-c3cccc(C)n3)nc3ccccc23)ccn1 :: 0
Cc1ccc(-c2ccc3c(ccc4sc5c(c43)NC[C@@H](C)N=C5N(C)C)n2)cn1 :: 23
COc1cc(Nc2ccnc3ccc(C(F)(F)F)cc23)cc(OC)c1OC :: 29
C[C@@H]1CC[C@H](C(=O)NC2CCCCC2)CN1c1cc(-c2ccc3c(N)n[nH]c3c2)nc(N)n1 :: 2
Nc1nc(N)c2nc(-c3ccccc3)[nH]c2n1 :: 0
